# target: PAK1 (Homo sapiens, UniProt Q13153)
# Sequence (Q13153 whole entry): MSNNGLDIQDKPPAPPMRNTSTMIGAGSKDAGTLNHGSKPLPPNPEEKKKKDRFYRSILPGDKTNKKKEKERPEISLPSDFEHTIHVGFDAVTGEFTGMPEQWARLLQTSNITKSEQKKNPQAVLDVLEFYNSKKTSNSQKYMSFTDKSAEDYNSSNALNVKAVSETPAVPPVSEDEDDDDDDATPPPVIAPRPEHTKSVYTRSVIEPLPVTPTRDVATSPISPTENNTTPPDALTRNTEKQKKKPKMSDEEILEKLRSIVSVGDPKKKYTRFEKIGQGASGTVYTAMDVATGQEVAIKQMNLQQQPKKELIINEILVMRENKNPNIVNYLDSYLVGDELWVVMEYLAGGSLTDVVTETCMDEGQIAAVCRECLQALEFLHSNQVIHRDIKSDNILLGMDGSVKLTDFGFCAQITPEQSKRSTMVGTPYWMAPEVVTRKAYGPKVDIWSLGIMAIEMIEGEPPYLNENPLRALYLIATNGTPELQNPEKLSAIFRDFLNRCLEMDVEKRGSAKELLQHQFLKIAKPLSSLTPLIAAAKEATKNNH
# procedureDetails: In vitro PAK inhibition assay (Z'-LYTE, SelectScreen), PAK1
# Type: biochemical
# experimentalParameters: read-out: PAK1 IC50
pIC50: −log10 of the molar value.
metricName: pIC50

// solved cases for pIC50 follow
CCn1c(=O)c(-c2ccc(-c3cncc(C)n3)cc2Cl)cc2cnc(NCCOCCN(C)C)nc21 [Example 127] :: 6.30 to 7.30
CCn1c(=O)c(-c2ccc(-c3cncc(C)n3)cc2Cl)cc2cnc(NC3CCC(CCN)CC3)nc21 (stereo not shown) [Example 134] :: > 7.30
CCn1c(=O)c(-c2ccc(-c3noc(C)n3)cc2Cl)cc2cnc(N[C@H]3CC[C@H](N)CC3)nc21 [Example 94] :: 6.30 to 7.30

// next entry
// query Report pIC50, nothing else, for this compound: CCn1c(=O)c(-c2ccc(-c3ccncc3C)cc2Cl)cc2cnc(NC3CCOCC3)nc21 [Example 46]
// result 5.30 to 6.30
